- Assay method text: 3H-Thymidine Incorporation Assay (24 hr drug, wash, another 48 hr; 72 hr assay)
- Format: cell-based
- Condition context: MCF7, read-out: IC50 in μM (3H-TdR incorporation at 72 hr) MCF-7 (72 h), MCF-7 human breast carcinoma; 72 h exposure
Metric name: IC50 (µM)
Numeric answer only, unit µM assumed.

Quick note, IC50 for CC(C)CCCCC(=O)Nc1ccn([C@@H]2CO[C@H](COC(=O)CCCCC(C)C)O2)c(=O)n1 [Compound 276] landed at 0.0017

---

List of pIC50 values.
- Assay method text: 3H-Thymidine Incorporation Assay (24 hr drug, wash, another 48 hr; 72 hr assay)
- Assay type: cell-based
- Condition context: NCI-H460, read-out: IC50 (3H-TdR incorporation at 72 hr) H-460 24 h, H-460 human lung carcinoma; 24 hr exposure to drug, wash, another 48 hr
pIC50 here is simply -log10 of the concentration when that concentration is written in mol/L.

The following molecules have reported results that may help.
Nc1ccn([C@@H]2CO[C@H](COC(=O)c3ccc([N+](=O)[O-])cc3)O2)c(=O)n1: 7.82
Cc1ccc(C)c(OCCCC(C)(C)C(=O)OC[C@H]2OC[C@@H](n3ccc(N)nc3=O)O2)c1: 8.59
CCOC(OCC)(OC[C@H]1OC[C@@H](n2ccc(N)nc2=O)O1)c1ccccc1: 6.20

Now turn to the next molecule.
// recorded pIC50 for Nc1ccn([C@@H]2CO[C@H](COC(=O)C34CCC[C@@H]5C[C@@H]3C[C@H]5C4)O2)c(=O)n1 : 9.28

---

- Assay method text: 3H-Thymidine Incorporation Assay (24 hr drug, wash, another 48 hr; 72 hr assay)
- Type: cell-based
- Condition context: CCRF-CEM, read-out: IC50 (3H-TdR incorporation at 72 hr) CCRF-CEM 24 h, CCRF-CEM T-cell leukemia; 24 hr exposure to drug, wash, another 48 hr
Below, each entry is listed alongside its reported IC50.
Only the number, expressed in nM, is required.

Here is how some compounds turned out for IC50.
Nc1ccn([C@@H]2CO[C@H](COC(=O)C34CCC[C@@H]5C[C@@H]3C[C@H]5C4)O2)c(=O)n1 [Compound 232]: 3.7
CCOC(OCC)(OC[C@H]1OC[C@@H](n2ccc(N)nc2=O)O1)c1ccccc1 [Compound 170]: 210
CC(C)(C(=O)OC[C@H]1OC[C@@H](n2ccc(N)nc2=O)O1)c1ccccc1[N+](=O)[O-].Cl [Compound 224, HYDROCHLORIDE SALT]: 100

Entry under test: Nc1ccn([C@@H]2CO[C@H](COC(=O)c3ccc([N+](=O)[O-])cc3)O2)c(=O)n1 [Compound 204] . Its IC50 was 12

GET /value?item= O=C(Nc1ccn([C@@H]2CO[C@H](COC(=O)OCc3ccc([N+](=O)[O-])cc3)O2)c(=O)n1)OCc1ccc([N+](=O)[O-])cc1 [Compound 181] &field=IC50 returns 37

// recorded IC50 for Cc1ccc(C)c(OCCCC(C)(C)C(=O)OC[C@H]2OC[C@@H](n3ccc(N)nc3=O)O2)c1 [Compound 237] : 1.6

---

- System: CEM/dCK-
- Assay method text: MMT or WST-1 assay at 72 hr
- Format: cell-based
- Condition context: read-out: IC50 (MMT or WST-1 at 72 hr) CEM/dCK-, 24 h exposure, single experiments
Metric name: pIC50
Please note pIC50 is a logarithmic value: minus log10 of concentration in mol/L. Answer with that number alone.

pIC50 measured on Nc1ccn([C@@H]2CO[C@H](COC(=O)C34CCC[C@@H]5C[C@@H]3C[C@H]5C4)O2)c(=O)n1 = 5.68
